TARGET_OR_SYSTEM: β-catenin (Homo sapiens, UniProt P35222)
Sequence (P35222 whole entry): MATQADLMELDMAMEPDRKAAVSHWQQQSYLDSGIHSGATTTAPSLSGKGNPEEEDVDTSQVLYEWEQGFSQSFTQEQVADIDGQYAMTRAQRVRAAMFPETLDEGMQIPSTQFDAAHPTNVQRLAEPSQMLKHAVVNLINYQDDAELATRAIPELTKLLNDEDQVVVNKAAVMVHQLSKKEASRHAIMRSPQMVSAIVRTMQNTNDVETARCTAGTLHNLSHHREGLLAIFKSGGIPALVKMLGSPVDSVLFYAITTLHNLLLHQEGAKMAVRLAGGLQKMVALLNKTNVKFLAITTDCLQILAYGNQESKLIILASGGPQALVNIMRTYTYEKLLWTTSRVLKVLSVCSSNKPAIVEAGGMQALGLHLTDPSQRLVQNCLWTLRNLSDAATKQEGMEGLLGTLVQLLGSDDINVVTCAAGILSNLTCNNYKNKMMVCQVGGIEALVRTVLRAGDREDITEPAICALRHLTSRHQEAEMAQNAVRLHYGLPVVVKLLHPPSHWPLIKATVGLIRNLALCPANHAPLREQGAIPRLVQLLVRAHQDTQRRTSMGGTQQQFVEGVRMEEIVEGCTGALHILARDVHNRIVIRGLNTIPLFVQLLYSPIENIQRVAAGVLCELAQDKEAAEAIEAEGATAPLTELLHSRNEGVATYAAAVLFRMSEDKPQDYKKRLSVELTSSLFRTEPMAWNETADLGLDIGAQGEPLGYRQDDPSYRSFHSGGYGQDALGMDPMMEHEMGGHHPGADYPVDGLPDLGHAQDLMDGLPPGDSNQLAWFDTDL
MEASUREMENT_PROTOCOL: KD50 measurement using competitive fluorescence polarization (FP) with labelled TCF4
Format: binding
CONDITION_PARAMETERS: fluorescence polarization, β-catenin
Where a SMILES comes first, the peptide text is derived from it.
MEASURE: β-Cat FP Hill slope
Format: numeric value only, no unit, no commentary.

The following molecules have reported results that may help.
MOLECULE	MEASURE	RESULT_VALUE
CC[C@H](C)[C@@H]1NC(=O)[C@H](CC(C)C)NC(=O)[C@H](Cc2ccccc2)NC(=O)[C@H](Cc2c[nH]c3ccccc23)NC(=O)[C@@H](N)CCCCNC(=O)CC[C@@H](C(=O)O)NC(=O)[C@H](Cc2c[nH]c3ccccc23)NC(=O)[C@H](Cc2ccccc2)NC(=O)[C@H](CO)NC1=O [compound 226] (HELM PEPTIDE1{K.W.F.L.I.S.F.W.E}$PEPTIDE1,PEPTIDE1,1:R3-9:R3$$$V2.0)	β-Cat FP Hill slope	0.69
CC[C@H](C)[C@@H]1NC(=O)[C@H](CC(C)C)NC(=O)[C@H](Cc2ccccc2)NC(=O)[C@H](Cc2c[nH]c3ccccc23)NC(=O)CCCCCNC(=O)C[C@@H](C(=O)O)NC(=O)[C@H](Cc2c[nH]c3ccccc23)NC(=O)[C@H](C)NC(=O)[C@H](CS)NC1=O [compound 245] (HELM PEPTIDE1{[O=C(CCCCCN[*:1])[*:2]].W.F.L.I.C.A.W.D}$PEPTIDE1,PEPTIDE1,1:R1-9:R3$$$V2.0)	β-Cat FP Hill slope	1.28

Let's switch to this molecule now.
Task item: Given CC[C@H](C)[C@H](NC(=O)[C@H](CC(C)C)NC(=O)[C@H](Cc1ccc(O)cc1)NC(=O)[C@H](Cc1c[nH]c2ccccc12)NC(=O)[C@H](CCSC)NC(=O)[C@H](CCCNC(=N)N)NC(=O)[C@H](CO)NC(=O)[C@@H](N)CCSC)C(=O)N[C@@H](CO)C(=O)N[C@@H](Cc1ccccc1)C(=O)N[C@@H](Cc1c[nH]c2ccccc12)C(=O)NCC(=O)O [compound 66] (H-MSRMWYLISFWG-OH) , state its recorded β-Cat FP Hill slope.
Reply: 0.7

====

Examples of molecules with documented EC50 follow.
TARGET_OR_SYSTEM: Wnt-responsive promoter (TCF/LEF)
MEASUREMENT_PROTOCOL: Wnt-dependent luciferase reporter assay
Where a SMILES comes first, the peptide text is derived from it.

The following molecules have reported results that may help.
MOLECULE	TARGET_OR_SYSTEM	EC50
CC[C@H](C)[C@H](NC(=O)[C@H](CC(C)C)NC(=O)[C@H](Cc1ccccc1)NC(=O)[C@H](Cc1c[nH]c2ccccc12)NC(=O)[C@H](CCSC)NC(C)=O)C(=O)N[C@@H](CO)C(=O)N[C@@H](Cc1ccccc1)C(=O)N[C@@H](Cc1c[nH]c2ccccc12)C(=O)NCC(=O)O [compound 219] (Ac-MWFLISFWG-OH)	Wnt-responsive promoter (TCF/LEF)	< 7.5 µM
CC[C@H](C)[C@@H]1NC(=O)[C@H](CC(C)C)NC(=O)[C@H](Cc2ccccc2)NC(=O)[C@H](Cc2c[nH]c3ccccc23)NC(=O)[C@H](CCSC)NC(=O)CCCNC(=O)C[C@@H](C(=O)O)NC(=O)[C@H](Cc2c[nH]c3ccccc23)NC(=O)[C@H](C)NC(=O)[C@H](CS)NC1=O [compound 191] (HELM PEPTIDE1{[O=C(CCCN[*:1])[*:2]].M.W.F.L.I.C.A.W.D}$PEPTIDE1,PEPTIDE1,1:R1-10:R3$$$V2.0)	Wnt-responsive promoter (TCF/LEF)	7.5 to 15 µM
CC[C@H](C)[C@H](NC(=O)[C@H](CC(C)C)NC(=O)[C@H](Cc1ccccc1)NC(=O)[C@H](Cc1c[nH]c2ccccc12)NC(=O)[C@@H](N)CCSC)C(=O)N[C@@H](CS)C(=O)N[C@@H](Cc1ccccc1)C(=O)N[C@@H](Cc1c[nH]c2ccccc12)C(=O)NCC(=O)O [compound 42] (H-MWFLICFWG-OH)	Wnt-responsive promoter (TCF/LEF)	< 7.5 µM
CC[C@H](C)[C@@H]1NC(=O)[C@H](CC(C)C)NC(=O)[C@H](CC(C)C)NC(=O)[C@H](Cc2c[nH]c3ccccc23)NC(=O)[C@@H](N)CCCCNC(=O)C[C@@H](C(=O)O)NC(=O)[C@H](Cc2c[nH]c3ccccc23)NC(=O)[C@H](C)NC(=O)[C@H](CO)NC1=O [compound 206] (HELM PEPTIDE1{K.W.L.L.I.S.A.W.D}$PEPTIDE1,PEPTIDE1,1:R3-9:R3$$$V2.0)	Wnt-responsive promoter (TCF/LEF)	15 to 22.5 µM
CC[C@H](C)[C@@H]1NC(=O)[C@H](CC(C)C)NC(=O)[C@H](CC2CCCCC2)NC(=O)[C@H](Cc2c[nH]c3ccccc23)NC(=O)[C@@H](N)CCCCNC(=O)C[C@@H](C(=O)O)NC(=O)[C@H](Cc2c[nH]c3ccccc23)NC(=O)[C@H](C)NC(=O)[C@H](CO)NC1=O [compound 203] (HELM PEPTIDE1{K.W.[Cha].L.I.S.A.W.D}$PEPTIDE1,PEPTIDE1,1:R3-9:R3$$$V2.0)	Wnt-responsive promoter (TCF/LEF)	7.5 to 15 µM

Let's switch to this molecule now.
Task item: Given CC[C@H](C)[C@H](NC(=O)[C@H](CC(C)C)NC(=O)[C@H](Cc1ccccc1)NC(=O)[C@H](Cc1c[nH]c2ccccc12)NC(=O)[C@H](CCSC)NC(=O)[C@H](CCCNC(=N)N)NC(=O)[C@@H](NC(=O)[C@@H](N)CCSC)[C@@H](C)O)C(=O)N[C@@H](CO)C(=O)N[C@@H](Cc1ccccc1)C(=O)N[C@@H](Cc1c[nH]c2ccccc12)C(N)=O [compound 73] (H-MTRMWFLISFW-NH2) , state its recorded EC50.
Reply: > 30 µM
